- Test system: Zymoseptoria tritici (SEPTTR-184)
- assay_name: Cyp51 dsRNA tile (fragment) foliar application bioassay (Example 6)
- Type: in vivo
- test_context: 1 day protectant; calculated from disease control
# ED80 (ppm) SEPTTR-184 1DP per entry

molecule	ED80 (ppm) SEPTTR-184 1DP
MgCyp51-T2: dsRNA tile of Zymoseptoria tritici Cyp51, 165 bp, location 48-212 (nucleic acid, listed as Zymoseptoria tritici) CCAGACCAGCCTCTGGAAACTTGTCGGACTTGGATTCCTCGCCTTCAGCACGCTCGCCATCCTCCTCAATGTCCTCTCACAACTTCTCTTCCGTGGCAAGTTGTCCGATCCGCCACTCGTATTCCACTGGGTGCCCTTCATCGGAAGCACCATCACATACGGCAT	>200 ppm
MgCyp51-T12: dsRNA tile of Zymoseptoria tritici Cyp51, 138 bp, location 1377-1514 (nucleic acid, listed as Zymoseptoria tritici) TGGCTACGGCCTGGTAAGCAAGGGCGCGGCGTCGCCATACTTACCCTTTGGTGCGGGACGACACAGATGTATCGGCGAGCAATTCGCGTACGTGCAATTGCAGACCATTACAGCGACGATGGTTCGCGATTTCAAGTT	>200 ppm
MgCyp51-T9: dsRNA tile of Zymoseptoria tritici Cyp51, 172 bp, location 1-172 (nucleic acid, listed as Zymoseptoria tritici, double-stranded RNA) ATGGGTCTCCTCCAGGAAGTCCTCGCGCAGTTCGACGCGCAATTCGGCCAGACCAGCCTCTGGAAACTTGTCGGACTTGGATTCCTCGCCTTCAGCACGCTCGCCATCCTCCTCAATGTCCTCTCACAACTTCTCTTCCGTGGCAAGTTGTCCGATCCGCCACTCGTATTCC	>200 ppm
